The values you see were collected from patent US20250161319A1.

Field: IC50. Provide a value for each of the molecules that follow.
target of assay: GCK (Homo sapiens (Human))
Sequence (Q12851 whole entry): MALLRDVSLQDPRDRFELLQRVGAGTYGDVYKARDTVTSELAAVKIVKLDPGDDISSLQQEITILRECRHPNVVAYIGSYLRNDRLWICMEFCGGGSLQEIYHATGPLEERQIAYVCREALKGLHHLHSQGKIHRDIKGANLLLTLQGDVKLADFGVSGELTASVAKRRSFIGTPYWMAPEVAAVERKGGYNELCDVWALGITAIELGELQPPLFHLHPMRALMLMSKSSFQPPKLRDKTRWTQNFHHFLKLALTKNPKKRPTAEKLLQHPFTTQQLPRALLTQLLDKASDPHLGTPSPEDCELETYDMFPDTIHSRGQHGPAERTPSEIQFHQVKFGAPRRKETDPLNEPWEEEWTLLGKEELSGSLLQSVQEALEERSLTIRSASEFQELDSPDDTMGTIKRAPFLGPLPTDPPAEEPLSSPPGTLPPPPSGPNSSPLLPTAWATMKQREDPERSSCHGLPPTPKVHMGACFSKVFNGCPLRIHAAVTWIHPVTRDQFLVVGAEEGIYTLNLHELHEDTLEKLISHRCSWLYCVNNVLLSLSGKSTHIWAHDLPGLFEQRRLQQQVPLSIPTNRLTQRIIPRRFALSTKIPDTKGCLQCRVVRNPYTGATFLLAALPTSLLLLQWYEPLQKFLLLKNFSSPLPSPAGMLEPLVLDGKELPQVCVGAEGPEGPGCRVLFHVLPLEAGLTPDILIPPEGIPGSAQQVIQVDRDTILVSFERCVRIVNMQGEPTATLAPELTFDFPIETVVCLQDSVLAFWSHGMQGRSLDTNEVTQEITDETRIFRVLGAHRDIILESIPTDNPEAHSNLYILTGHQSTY
protocol text: In vitro enzyme activity, ADP-Glo method (Example 3)
Type: biochemical
condition info: recombinant protein, read-out: GCK inhibiting activity level (IC50)

Below: 5 molecules and their reported IC50.
[
  {
    "molecule": "CN1CCN(c2ccc(Nc3ncc4cccc(O[C@H]5CC[C@@H](O)CC5)c4n3)cc2)CC1 [Compound C4]",
    "IC50": "10 to 100 nM"
  },
  {
    "molecule": "CN1CCN(c2ccc(Nc3ncc4cccc(O[C@H]5CC[C@H](O)CC5)c4n3)cc2)CC1 [Compound C3]",
    "IC50": "10 to 100 nM"
  },
  {
    "molecule": "CN1CCC(n2cc(Nc3ncc4cccc(O[C@H]5CC[C@@H](N)CC5)c4n3)cn2)CC1 [Compound C2]",
    "IC50": "10 to 100 nM"
  },
  {
    "molecule": "Cn1cccc1-c1cc2cc(NC(=O)C3C[C@@H]3F)ncc2c(N)c1F (stereo partly drawn) [Compound C6]",
    "IC50": "10 to 100 nM"
  },
  {
    "molecule": "Cn1cccc1-c1cc2cc(NC(=O)C3C[C@H]3F)ncc2c(N)c1F (stereo partly drawn) [Compound C5]",
    "IC50": "≤ 10 nM"
  }
]

Moving on to the next molecule.
Name the recorded IC50 for CN1CCC(n2cc(Nc3ncc4cccc(O[C@H]5CC[C@H](N)CC5)c4n3)cn2)CC1 [Compound C1] .
10 to 100 nM

###

Field: MTD. Provide a value for each of the compounds that follow.
protocol text: Oral maximum tolerated dose / oral acute toxicity test in mice
Assay type: in vivo
condition info: mouse, in vivo, po; mice, single dose
Answers are plain numbers, in mg/kg.

[
  {
    "compound": "CN1CCN(c2ccc(Nc3ncc4cccc(O[C@H]5CC[C@H](O)CC5)c4n3)cc2)CC1 [Compound C3]",
    "units symbol": "mg/kg",
    "test result": 225
  }
]

Moving on to the next compound.
Name the recorded MTD for CN1CCC(n2cc(Nc3ncc4cccc(O[C@H]5CC[C@H](N)CC5)c4n3)cn2)CC1 [Compound C1] .
338

###

protocol text: Determination of pharmacokinetic parameters in SD rats
Assay type: in vivo
condition info: rat, plasma, oral; male SD rats; intravenously 2 mg/kg, gavage 10 mg/kg; read-out: Absolute oral bioavailability %
quantity: bioavailability
Provide the measurement as a number trailed by its unit.

Name the recorded bioavailability for Cn1cccc1-c1cc2cc(NC(=O)[C@@H]3C[C@H]3F)ncc2c(N)c1F [DD02001A trans] .
61.3%

###

target of assay: PDK1 (Homo sapiens (Human))
Sequence (O15530 whole entry): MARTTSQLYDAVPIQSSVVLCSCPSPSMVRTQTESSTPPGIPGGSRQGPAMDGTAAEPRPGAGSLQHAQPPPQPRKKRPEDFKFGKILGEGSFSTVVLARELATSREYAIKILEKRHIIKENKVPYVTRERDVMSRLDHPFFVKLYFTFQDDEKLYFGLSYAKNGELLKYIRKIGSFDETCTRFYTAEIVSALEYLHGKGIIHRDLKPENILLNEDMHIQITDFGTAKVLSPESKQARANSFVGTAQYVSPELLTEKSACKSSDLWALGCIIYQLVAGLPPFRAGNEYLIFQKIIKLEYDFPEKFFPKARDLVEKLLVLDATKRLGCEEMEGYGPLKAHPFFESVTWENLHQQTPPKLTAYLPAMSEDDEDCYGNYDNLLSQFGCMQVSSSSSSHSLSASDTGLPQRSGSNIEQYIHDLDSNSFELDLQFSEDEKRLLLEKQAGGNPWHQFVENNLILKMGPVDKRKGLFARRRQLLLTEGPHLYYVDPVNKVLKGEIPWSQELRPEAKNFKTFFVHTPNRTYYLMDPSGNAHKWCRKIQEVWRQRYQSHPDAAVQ
protocol text: Inhibition of PDK1 kinase activity in vitro (ADP-Glo)
Type: biochemical
condition info: ADP-Glo; read-out: Activity/IC50, nM PDK1
quantity: IC50

Name the recorded IC50 for Cn1cccc1-c1cc2cc(NC(=O)[C@@H]3C[C@@H]3F)ncc2c(N)c1F [DD02001A cis] .
> 7000 nM

###

target of assay: HPK1 (Homo sapiens (Human))
protocol text: Inhibition of HPK1 kinase activity in vitro (ADP-Glo), compounds of Formula I-2
Assay type: biochemical
condition info: ADP-Glo; read-out: Activity/IC50, nM HPK1
quantity: IC50

Name the recorded IC50 for Cn1cccc1-c1cc2cc(NC(=O)[C@@H]3C[C@@H]3F)ncc2c(N)c1F [DD02001A cis] .
< 10 nM

###

target of assay: UniProtKB Q9UKE5
protocol text: Inhibition of TNIK kinase activity in vitro (ADP-Glo)
Type: biochemical
Sequence (Q9UKE5 whole entry): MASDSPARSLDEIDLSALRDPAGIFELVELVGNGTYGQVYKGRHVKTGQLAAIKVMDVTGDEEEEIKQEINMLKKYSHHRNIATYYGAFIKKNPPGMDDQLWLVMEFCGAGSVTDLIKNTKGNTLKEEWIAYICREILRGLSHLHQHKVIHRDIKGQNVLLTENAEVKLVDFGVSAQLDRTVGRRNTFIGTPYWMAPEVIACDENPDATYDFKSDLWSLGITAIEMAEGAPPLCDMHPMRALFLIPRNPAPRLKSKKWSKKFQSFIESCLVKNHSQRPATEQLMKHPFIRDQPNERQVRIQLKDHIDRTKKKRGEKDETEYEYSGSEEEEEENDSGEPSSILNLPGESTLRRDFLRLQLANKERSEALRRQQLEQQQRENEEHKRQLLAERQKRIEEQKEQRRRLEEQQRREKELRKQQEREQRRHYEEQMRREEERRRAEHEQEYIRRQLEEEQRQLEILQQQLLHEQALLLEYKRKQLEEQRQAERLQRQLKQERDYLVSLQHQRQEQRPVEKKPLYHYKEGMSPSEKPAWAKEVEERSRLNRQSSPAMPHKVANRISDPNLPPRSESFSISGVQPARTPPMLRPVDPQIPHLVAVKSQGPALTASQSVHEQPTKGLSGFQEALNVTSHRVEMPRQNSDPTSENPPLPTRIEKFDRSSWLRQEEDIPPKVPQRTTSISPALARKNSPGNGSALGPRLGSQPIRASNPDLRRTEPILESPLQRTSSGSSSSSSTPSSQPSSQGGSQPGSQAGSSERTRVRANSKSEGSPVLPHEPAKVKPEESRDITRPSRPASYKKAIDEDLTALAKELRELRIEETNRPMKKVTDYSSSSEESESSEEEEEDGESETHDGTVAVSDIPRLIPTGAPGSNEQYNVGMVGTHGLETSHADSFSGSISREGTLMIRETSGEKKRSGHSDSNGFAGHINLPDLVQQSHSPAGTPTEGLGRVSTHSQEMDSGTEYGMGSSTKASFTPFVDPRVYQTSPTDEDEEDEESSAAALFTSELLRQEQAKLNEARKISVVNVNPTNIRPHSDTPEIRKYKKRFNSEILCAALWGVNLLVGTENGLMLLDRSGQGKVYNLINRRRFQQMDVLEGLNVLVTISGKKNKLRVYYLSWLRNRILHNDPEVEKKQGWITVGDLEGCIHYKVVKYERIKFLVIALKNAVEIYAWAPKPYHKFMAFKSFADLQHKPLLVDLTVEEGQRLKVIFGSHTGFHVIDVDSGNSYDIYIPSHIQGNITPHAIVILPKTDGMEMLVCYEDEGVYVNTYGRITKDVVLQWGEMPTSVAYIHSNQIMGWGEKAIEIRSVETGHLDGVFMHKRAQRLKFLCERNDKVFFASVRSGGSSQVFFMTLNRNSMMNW
quantity: IC50

Name the recorded IC50 for Cn1cccc1-c1cc2cc(NC(=O)[C@@H]3C[C@H]3F)ncc2c(N)c1F [DD02001A trans] .
> 10 nM

###

target of assay: PDK1 (Homo sapiens (Human))
protocol text: In vitro enzyme activity, ADP-Glo method (Example 3)
Format: biochemical
condition info: recombinant protein, read-out: PDK1 inhibiting activity level (IC50)
pIC50: −log10 of the molar value.
quantity: pIC50

Dear colleague, could you send me pIC50 for each of the items below? Thanks.
1. CN1CCC(n2cc(Nc3ncc4cccc(O[C@H]5CC[C@H](N)CC5)c4n3)cn2)CC1
2. CN1CCN(c2ccc(Nc3ncc4cccc(O[C@H]5CC[C@@H](O)CC5)c4n3)cc2)CC1
3. Cn1cccc1-c1cc2cc(NC(=O)C3C[C@H]3F)ncc2c(N)c1F (stereo partly drawn)
4. Cn1cccc1-c1cc2cc(NC(=O)C3C[C@@H]3F)ncc2c(N)c1F (stereo partly drawn)
5. CN1CCC(n2cc(Nc3ncc4cccc(O[C@H]5CC[C@@H](N)CC5)c4n3)cn2)CC1
6. CN1CCN(c2ccc(Nc3ncc4cccc(O[C@H]5CC[C@H](O)CC5)c4n3)cc2)CC1

["6.00 to 7.00", "< 6.00", "< 6.00", "< 6.00", "6.00 to 7.00", "< 6.00"]

###

target of assay: HPK1 (Homo sapiens (Human))
protocol text: In vitro enzyme activity, ADP-Glo method (Example 3)
Type: biochemical
condition info: recombinant protein, read-out: HPK1 inhibiting activity level (IC50)
pIC50: −log10 of the molar value.
quantity: pIC50

Dear colleague, could you send me pIC50 for each of the items below? Thanks.
1. CN1CCN(c2ccc(Nc3ncc4cccc(O[C@H]5CC[C@H](O)CC5)c4n3)cc2)CC1 [Compound C3]
2. CN1CCC(n2cc(Nc3ncc4cccc(O[C@H]5CC[C@@H](N)CC5)c4n3)cn2)CC1 [Compound C2]
3. CN1CCC(n2cc(Nc3ncc4cccc(O[C@H]5CC[C@H](N)CC5)c4n3)cn2)CC1 [Compound C1]
4. Cn1cccc1-c1cc2cc(NC(=O)C3C[C@H]3F)ncc2c(N)c1F (stereo partly drawn) [Compound C5]
5. Cn1cccc1-c1cc2cc(NC(=O)C3C[C@@H]3F)ncc2c(N)c1F (stereo partly drawn) [Compound C6]

7.00 to 8.00
≥ 8.00
≥ 8.00
≥ 8.00
≥ 8.00

Name the recorded pIC50 for CN1CCN(c2ccc(Nc3ncc4cccc(O[C@H]5CC[C@@H](O)CC5)c4n3)cc2)CC1 [Compound C4] .
7.00 to 8.00

###

target of assay: TNIK (Homo sapiens (Human))
protocol text: In vitro enzyme activity, ADP-Glo method (Example 3)
Format: biochemical
condition info: recombinant protein, read-out: TNIK inhibiting activity level (IC50)
Sequence (Q9UKE5 whole entry, species assumed): as the sequence (Q9UKE5 whole entry) above
pIC50: −log10 of the molar value.
quantity: pIC50

Below: 5 molecules and their reported pIC50.
[
  {
    "molecule": "Cn1cccc1-c1cc2cc(NC(=O)C3C[C@H]3F)ncc2c(N)c1F (stereo partly drawn) [Compound C5]",
    "pIC50": "7.00 to 8.00"
  },
  {
    "molecule": "CN1CCN(c2ccc(Nc3ncc4cccc(O[C@H]5CC[C@H](O)CC5)c4n3)cc2)CC1 [Compound C3]",
    "pIC50": "7.00 to 8.00"
  },
  {
    "molecule": "CN1CCN(c2ccc(Nc3ncc4cccc(O[C@H]5CC[C@@H](O)CC5)c4n3)cc2)CC1 [Compound C4]",
    "pIC50": "7.00 to 8.00"
  },
  {
    "molecule": "CN1CCC(n2cc(Nc3ncc4cccc(O[C@H]5CC[C@@H](N)CC5)c4n3)cn2)CC1 [Compound C2]",
    "pIC50": "6.00 to 7.00"
  },
  {
    "molecule": "Cn1cccc1-c1cc2cc(NC(=O)C3C[C@@H]3F)ncc2c(N)c1F (stereo partly drawn) [Compound C6]",
    "pIC50": "7.00 to 8.00"
  }
]

For the record CN1CCC(n2cc(Nc3ncc4cccc(O[C@H]5CC[C@H](N)CC5)c4n3)cn2)CC1 [Compound C1] , what value of pIC50 is listed for TNIK (Homo sapiens (Human))?
6.00 to 7.00

###

target of assay: PDK1 (Homo sapiens (Human))
protocol text: Inhibition of PDK1 kinase activity in vitro (ADP-Glo)
Assay type: biochemical
quantity: IC50

Name the recorded IC50 for Cn1cccc1-c1cc2cc(NC(=O)[C@@H]3C[C@H]3F)ncc2c(N)c1F [DD02001A trans] .
> 10 µM

###

target of assay: HPK1 (Homo sapiens (Human), UniProt Q92918)
Sequence (Q92918 whole entry): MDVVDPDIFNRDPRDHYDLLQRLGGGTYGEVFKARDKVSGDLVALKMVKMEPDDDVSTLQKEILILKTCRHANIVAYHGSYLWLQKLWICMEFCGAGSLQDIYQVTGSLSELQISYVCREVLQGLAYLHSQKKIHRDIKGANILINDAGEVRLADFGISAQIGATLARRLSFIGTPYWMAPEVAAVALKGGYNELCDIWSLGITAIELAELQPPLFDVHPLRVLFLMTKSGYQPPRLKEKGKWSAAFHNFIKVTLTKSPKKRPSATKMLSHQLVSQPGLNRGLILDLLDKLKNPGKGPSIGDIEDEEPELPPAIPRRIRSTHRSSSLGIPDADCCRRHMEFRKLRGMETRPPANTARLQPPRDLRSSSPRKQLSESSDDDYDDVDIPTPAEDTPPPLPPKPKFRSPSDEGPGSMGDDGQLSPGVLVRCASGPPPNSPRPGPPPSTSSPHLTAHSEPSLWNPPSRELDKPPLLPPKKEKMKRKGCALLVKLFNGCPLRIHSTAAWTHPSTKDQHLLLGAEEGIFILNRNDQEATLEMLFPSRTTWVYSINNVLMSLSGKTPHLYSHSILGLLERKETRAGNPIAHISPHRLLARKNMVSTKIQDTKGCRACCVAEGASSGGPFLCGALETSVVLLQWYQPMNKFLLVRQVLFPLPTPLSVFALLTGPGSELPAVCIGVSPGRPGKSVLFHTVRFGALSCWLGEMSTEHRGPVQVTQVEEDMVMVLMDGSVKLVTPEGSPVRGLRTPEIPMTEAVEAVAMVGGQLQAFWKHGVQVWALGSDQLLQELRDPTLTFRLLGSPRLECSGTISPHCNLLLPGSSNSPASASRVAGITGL
protocol text: Inhibition of HPK1 kinase activity in vitro (ADP-Glo), compounds of Formula I-1
Format: biochemical
condition info: MBP substrate
quantity: IC50

Below: 5 compounds and their reported IC50.
[
  {
    "compound": "CN1CCC(NC(=O)c2ccc(Nc3ncc4cccc(OC5CCC(O)CC5)c4n3)cc2)CC1 (stereo not drawn)",
    "quantity": "IC50",
    "test result": "< 50 nM"
  },
  {
    "compound": "CN1CCC(n2cc(Nc3ncc4cccc(O[C@H]5CC[C@@H](N)CC5)c4n3)cn2)CC1",
    "quantity": "IC50",
    "test result": "< 50 nM"
  },
  {
    "compound": "NS(=O)(=O)c1cccc(Nc2ncc3cccc(OC4CCC(O)CC4)c3n2)c1 (stereo not drawn)",
    "quantity": "IC50",
    "test result": "> 300 nM"
  },
  {
    "compound": "CN1CCC(n2cc(Nc3ncc4cccc(OC5CCC(O)CC5)c4n3)cn2)CC1 (stereo not drawn)",
    "quantity": "IC50",
    "test result": "< 50 nM"
  },
  {
    "compound": "NS(=O)(=O)c1ccc(Nc2ncc3cccc(OC4CCC(O)C4)c3n2)cc1 (stereo not drawn)",
    "quantity": "IC50",
    "test result": "< 300 nM"
  }
]

Dear colleague, could you send me IC50 for each of the items below? Thanks.
1. CN1CCN(c2ccc(Nc3ncc4cccc(OC5CCC(O)C5)c4n3)cc2)CC1 (stereo not drawn)
2. CN1CCN(c2ccc(Nc3ncc4cccc(OC5CCC(O)CC5)c4n3)nc2)CC1 (stereo not drawn)

1. < 100 nM
2. < 300 nM

Dear colleague, could you send me IC50 for each of the items below? Thanks.
1. COCCOc1cccc2cnc(Nc3ccc(N4CCN(C)CC4)cc3)nc12
2. CN1CCN(c2ccc(Nc3ncc4cccc(OC5CCC(O)CC5)c4n3)cc2)CC1 (stereo not drawn)

1: < 200 nM; 2: < 50 nM
